Measured thermal shift delta Tm values are reported for all entries that follow.
System: LOC_OS02G14120-cb001;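 further: purified Escherichia coli-expressed rice kinase domain construct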
Assay: thermal shift delta Tm vs DMSO control; higher = stronger stabilization (binding)
Conditions: 12.5 µM; protein concentration 2 µM
Please respond with the number in °C and leave the unit unwritten.

**Q:** Dear colleague, I am looking for the recorded thermal shift delta Tm of the following molecule: COc1cc(OC)cc(-c2cc3cnc(N)nc3nc2NC(=O)NC(C)(C)C)c1
**A:** 0.72

**Q:** Dear colleague, I am looking for the recorded thermal shift delta Tm of the following molecule: CN1CCN(c2ccc(OC(F)(F)F)c(Nc3ncc4c(n3)-c3c(c(C(N)=O)nn3CCO)CC4)c2)CC1
**A:** 1.17

**Q:** Dear colleague, I am looking for the recorded thermal shift delta Tm of the following molecule: Nc1cccc(S(=O)(=O)N2CCCN(S(=O)(=O)c3ccc4c(c3)OCCO4)CC2)c1
**A:** 0.21

**Q:** Dear colleague, I am looking for the recorded thermal shift delta Tm of the following molecule: COCCNCc1ccc(-c2cc3nccc(Oc4ccc(NC(=O)C5(C(=O)Nc6ccc(F)cc6)CC5)cc4F)c3s2)nc1
**A:** 7.48

**Q:** Dear colleague, I am looking for the recorded thermal shift delta Tm of the following molecule: C=CC(=O)Nc1ccc2ncnc(Nc3ccc(OCc4cccc(F)c4)c(Cl)c3)c2c1
**A:** 2.45

**Q:** Dear colleague, I am looking for the recorded thermal shift delta Tm of the following molecule: CCNc1nc(Nc2cc(F)c(C(=O)N3CCOCC3)cc2OC)ncc1C(F)(F)F
**A:** 0.5

**Q:** Dear colleague, I am looking for the recorded thermal shift delta Tm of the following molecule: Cn1cnc(N)c2ncnc1-2
**A:** 0.61
